- Test system: Rattus norvegicus
- assayProcedure: Cardiovascular activity in deoxycorticosterone acetate treated hypertensive CD rat assessed as change in heart rate at 100 mg, ip after 24 hrs relative to control
- Type: ADME, organism-based
- conditionSet: in vivo
metricName: Activity (%)
Dear colleague, please return just the value in %, with no unit written.

Query (compound): COc1c2c(c3c(c1OC)CN(CCC(c1ccccc1)c1ccccc1)CC3)CCC2 ; field requested: Activity 0.6

Query (compound): COc1c2c(c3c(c1OC)CN(CC(c1ccccc1)c1ccccc1)CC3)CCC2 ; field requested: Activity -2.4

Query (compound): COc1c2c(c3c(c1OC)CCN(CC(c1ccccc1)c1ccccc1)C3)CCC2 ; field requested: Activity -0.5

Query (compound): COc1ccc(C(=O)N2CCc3c(c4c(c(OC)c3OC)CCC4)C2)cc1OC ; field requested: Activity -6.5

====

- assayProcedure: Toxicity in ip dosed Swiss-Webster mouse after 24 hrs
- Assay type: organism-based
- conditionSet: in vivo
metricName: LD50 at 24 h (mg/kg)
Dear colleague, please return just the value in mg/kg, with no unit written.

Query (compound): COc1c2c(c3c(c1OC)CN(CCC(c1ccccc1)c1ccccc1)CC3)CCC2 ; field requested: LD50 at 24 h 1000

Query (compound): COc1c2c(c3c(c1OC)CCNC3)CCC2 ; field requested: LD50 at 24 h 25

Query (compound): COc1c2c(c3c(c1OC)CCN(C(=O)C(c1ccccc1)c1ccccc1)C3)CCC2 ; field requested: LD50 at 24 h 200

Query (compound): Br.CCC(C)CN1CCc2c3c(c(OC)c(OC)c2C1)CCC3 (stereo unspecified) ; field requested: LD50 at 24 h 100

====

Please go through the items and note down their Activity.
- Tested on: Rattus norvegicus
- assayProcedure: Cardiovascular activity in deoxycorticosterone acetate treated hypertensive CD rat assessed as change in heart rate at 20 mg, ip after 1 hr relative to control
- Format: ADME, organism-based
- conditionSet: in vivo
Dear colleague, please return just the value in %, with no unit written.

Entry COc1ccc(C(=O)N2CCc3c4c(c(OC)c(OC)c3C2)CCC4)cc1OC , system Rattus norvegicus: what Activity was measured? 3.8

Entry COc1c2c(c3c(c1OC)CNCC3)CCC2 , system Rattus norvegicus: what Activity was measured? 10.2

Entry COc1ccc(CC(=O)N2CCc3c4c(c(OC)c(OC)c3C2)CCC4)cc1OC , system Rattus norvegicus: what Activity was measured? 1.9

Entry COc1c2c(c3c(c1OC)CN(C(=O)CC(c1ccccc1)c1ccccc1)CC3)CCC2 , system Rattus norvegicus: what Activity was measured? 16.8

Entry Br.CCC(C)CN1CCc2c3c(c(OC)c(OC)c2C1)CCC3 (configuration not stated) , system Rattus norvegicus: what Activity was measured? 7.8

Entry Br.COc1c2c(c3c(c1OC)CN(C)CC3)CCC2 , system Rattus norvegicus: what Activity was measured? 3.5

Entry COc1c2c(c3c(c1OC)CN(CC(c1ccccc1)c1ccccc1)CC3)CCC2 , system Rattus norvegicus: what Activity was measured? 7.4

====

- Test system: Rattus norvegicus
- assayProcedure: Cardiovascular activity in deoxycorticosterone acetate treated hypertensive CD rat assessed as change in heart rate at 50 mg, ip after 4 hrs relative to control
- Format: ADME, organism-based
- conditionSet: in vivo
Please go through the items and note down their Activity.
Dear colleague, please return just the value in %, with no unit written.

Query (compound): Br.CN1CCc2c(c(O)c(O)c3c2CCC3)C1 ; field requested: Activity 4.1

Query (compound): C[C@](N)(Cc1ccc(O)c(O)c1)C(=O)O ; field requested: Activity 31

Query (compound): Br.COc1ccc(CN2CCc3c(c4c(c(OC)c3OC)CCC4)C2)cc1OC ; field requested: Activity 1

Query (compound): CC(=O)Oc1c2c(c3c(c1OC(C)=O)CN(C)CC3)CCC2.O=C(O)C(F)(F)F ; field requested: Activity 2.6

Query (compound): Br.CN1CCc2c(O)c(O)c3c(c2C1)CCC3 ; field requested: Activity 4.6

Query (compound): Br.COc1ccc(CCN2CCc3c4c(c(OC)c(OC)c3C2)CCC4)cc1OC ; field requested: Activity 5.4

Query (compound): COc1ccc(CN2CCc3c4c(c(OC)c(OC)c3C2)CCC4)cc1OC.Cl ; field requested: Activity 10.2

Query (compound): Br.COc1c2c(c3c(c1OC)CN(C)CC3)CCC2 ; field requested: Activity 1.6
